B1: glmS ribozyme (parent)
chain: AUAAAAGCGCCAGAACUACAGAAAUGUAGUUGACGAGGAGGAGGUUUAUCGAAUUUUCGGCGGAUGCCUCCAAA

Variants of: B1
test.name: self-cleavage kobs at 640 uM GlcN6P; higher = faster cleavage; RNA array
test.context: with glucosamine-6-phosphate
Fewer inactive variants are shown than the library holds.
Listed here are variants together with their documented self-cleavage kobs at 640 uM GlcN6P.
measured.attribute: self-cleavage kobs at 640 uM GlcN6P

[[record]]
sequence_change = "U56G U69G"
measured_attribute = "self-cleavage kobs at 640 uM GlcN6P"
experimental_result = "8.25e-05 s⁻¹"

[[record]]
sequence_change = "U46C A53U"
measured_attribute = "self-cleavage kobs at 640 uM GlcN6P"
experimental_result = "0.000471 s⁻¹"

[[record]]
sequence_change = "G9C C50U U55G"
measured_attribute = "self-cleavage kobs at 640 uM GlcN6P"
experimental_result = "< 1e-05 s⁻¹"

[[record]]
sequence_change = "C8A C11G"
measured_attribute = "self-cleavage kobs at 640 uM GlcN6P"
experimental_result = "< 1e-05 s⁻¹"

[[record]]
sequence_change = "G41C U47C C68U"
measured_attribute = "self-cleavage kobs at 640 uM GlcN6P"
experimental_result = "< 1e-05 s⁻¹"

[[record]]
sequence_change = "C8G A15C C16U"
measured_attribute = "self-cleavage kobs at 640 uM GlcN6P"
experimental_result = "< 1e-05 s⁻¹"

[[record]]
sequence_change = "G32U C34G"
measured_attribute = "self-cleavage kobs at 640 uM GlcN6P"
experimental_result = "< 1e-05 s⁻¹"

[[record]]
sequence_change = "C8A C11G G59C C61U"
measured_attribute = "self-cleavage kobs at 640 uM GlcN6P"
experimental_result = "< 1e-05 s⁻¹"

[[record]]
sequence_change = "A12U U45A U65G"
measured_attribute = "self-cleavage kobs at 640 uM GlcN6P"
experimental_result = "0.000665 s⁻¹"

[[record]]
sequence_change = "A14U G43U U46A"
measured_attribute = "self-cleavage kobs at 640 uM GlcN6P"
experimental_result = "< 1e-05 s⁻¹"

[[record]]
sequence_change = "G13U C70G"
measured_attribute = "self-cleavage kobs at 640 uM GlcN6P"
experimental_result = "4.63e-05 s⁻¹"

[[record]]
sequence_change = "A12G A15G"
measured_attribute = "self-cleavage kobs at 640 uM GlcN6P"
experimental_result = "7.71e-05 s⁻¹"

[[record]]
sequence_change = "A14U A36C U47C"
measured_attribute = "self-cleavage kobs at 640 uM GlcN6P"
experimental_result = "< 1e-05 s⁻¹"

[[record]]
sequence_change = "C10A C34G"
measured_attribute = "self-cleavage kobs at 640 uM GlcN6P"
experimental_result = "< 1e-05 s⁻¹"

[[record]]
sequence_change = "A14U A33G G38A"
measured_attribute = "self-cleavage kobs at 640 uM GlcN6P"
experimental_result = "< 1e-05 s⁻¹"

[[record]]
sequence_change = "G7A G51U"
measured_attribute = "self-cleavage kobs at 640 uM GlcN6P"
experimental_result = "< 1e-05 s⁻¹"

[[record]]
sequence_change = "G35C U65C"
measured_attribute = "self-cleavage kobs at 640 uM GlcN6P"
experimental_result = "< 1e-05 s⁻¹"

[[record]]
sequence_change = "G29A A39U"
measured_attribute = "self-cleavage kobs at 640 uM GlcN6P"
experimental_result = "0.000731 s⁻¹"

[[record]]
sequence_change = "A15U A39U"
measured_attribute = "self-cleavage kobs at 640 uM GlcN6P"
experimental_result = "0.0011 s⁻¹"

[[record]]
sequence_change = "U30C G44A"
measured_attribute = "self-cleavage kobs at 640 uM GlcN6P"
experimental_result = "< 1e-05 s⁻¹"

[[record]]
sequence_change = "C16A G32A C34A"
measured_attribute = "self-cleavage kobs at 640 uM GlcN6P"
experimental_result = "< 1e-05 s⁻¹"

[[record]]
sequence_change = "U56C C68U"
measured_attribute = "self-cleavage kobs at 640 uM GlcN6P"
experimental_result = "< 1e-05 s⁻¹"

[[record]]
sequence_change = "C10U A15U G35A C61G"
measured_attribute = "self-cleavage kobs at 640 uM GlcN6P"
experimental_result = "< 1e-05 s⁻¹"

[[record]]
sequence_change = "G41U U47G G51U"
measured_attribute = "self-cleavage kobs at 640 uM GlcN6P"
experimental_result = "< 1e-05 s⁻¹"

[[record]]
sequence_change = "C10G U54A C58G G62C C67G"
measured_attribute = "self-cleavage kobs at 640 uM GlcN6P"
experimental_result = "6.44e-05 s⁻¹"

[[record]]
sequence_change = "C8A U49A"
measured_attribute = "self-cleavage kobs at 640 uM GlcN6P"
experimental_result = "< 1e-05 s⁻¹"

[[record]]
sequence_change = "C11U C61G C67A"
measured_attribute = "self-cleavage kobs at 640 uM GlcN6P"
experimental_result = "0.000183 s⁻¹"

[[record]]
sequence_change = "A52G G60C"
measured_attribute = "self-cleavage kobs at 640 uM GlcN6P"
experimental_result = "< 1e-05 s⁻¹"

[[record]]
sequence_change = "C11A U30G U65C"
measured_attribute = "self-cleavage kobs at 640 uM GlcN6P"
experimental_result = "< 1e-05 s⁻¹"

[[record]]
sequence_change = "A15C U31G U69G"
measured_attribute = "self-cleavage kobs at 640 uM GlcN6P"
experimental_result = "0.000378 s⁻¹"

[[record]]
sequence_change = "G13U G43C"
measured_attribute = "self-cleavage kobs at 640 uM GlcN6P"
experimental_result = "< 1e-05 s⁻¹"

[[record]]
sequence_change = "C10U A33G"
measured_attribute = "self-cleavage kobs at 640 uM GlcN6P"
experimental_result = "< 1e-05 s⁻¹"

[[record]]
sequence_change = "C16U G44A"
measured_attribute = "self-cleavage kobs at 640 uM GlcN6P"
experimental_result = "7.56e-05 s⁻¹"

[[record]]
sequence_change = "A12C A20C"
measured_attribute = "self-cleavage kobs at 640 uM GlcN6P"
experimental_result = "0.00491 s⁻¹"

[[record]]
sequence_change = "G60C C70A"
measured_attribute = "self-cleavage kobs at 640 uM GlcN6P"
experimental_result = "< 1e-05 s⁻¹"

[[record]]
sequence_change = "C34A U45G"
measured_attribute = "self-cleavage kobs at 640 uM GlcN6P"
experimental_result = "< 1e-05 s⁻¹"

[[record]]
sequence_change = "U31G C67A"
measured_attribute = "self-cleavage kobs at 640 uM GlcN6P"
experimental_result = "0.000858 s⁻¹"

[[record]]
sequence_change = "G29C A36G G41U"
measured_attribute = "self-cleavage kobs at 640 uM GlcN6P"
experimental_result = "< 1e-05 s⁻¹"

[[record]]
sequence_change = "U45C A48C G63U"
measured_attribute = "self-cleavage kobs at 640 uM GlcN6P"
experimental_result = "< 1e-05 s⁻¹"

[[record]]
sequence_change = "U56A U69C"
measured_attribute = "self-cleavage kobs at 640 uM GlcN6P"
experimental_result = "0.000693 s⁻¹"

[[record]]
sequence_change = "A14C G66U"
measured_attribute = "self-cleavage kobs at 640 uM GlcN6P"
experimental_result = "8.12e-05 s⁻¹"

[[record]]
sequence_change = "A53C C61G"
measured_attribute = "self-cleavage kobs at 640 uM GlcN6P"
experimental_result = "< 1e-05 s⁻¹"

[[record]]
sequence_change = "G13A G32C"
measured_attribute = "self-cleavage kobs at 640 uM GlcN6P"
experimental_result = "6.56e-05 s⁻¹"

[[record]]
sequence_change = "G9C A39G G40U"
measured_attribute = "self-cleavage kobs at 640 uM GlcN6P"
experimental_result = "< 1e-05 s⁻¹"

